Data origin: patent US20120232062A1

- System: HCV genotype 1b
- protocol-details: HCV 1b replicon luciferase assay
- Format: cell-based
- run-parameters: Hepatitis C virus, Huh-7, 48 h, Table 1; Huh7 HCV 1b replicon, luciferase reporter, 48 hours; read-out: 1b EC50
measured-quantity: EC50
Provide a numeric answer, followed by its unit.

[in] May I ask what EC50 has been recorded for CC(C)CN(C)c1ccc2c(C(=O)NC3CCNCC3)n[nH]c2n1 [compound 738] ?
[out] 2200 nM

[in] Now this one: C=CCCCCCCN1CCC(NC(=O)c2nn(C)c3nc(N4CCCCCC4)ccc23)CC1 [compound 1103]
[out] 300 nM

[in] Now this one: Cn1nc(-c2nnc(C3CCN(CC(F)F)CC3)o2)c2ccc(N3CCCCCCC3)nc21 [compound 1323]
[out] 4400 nM

[in] Now this one: O=C(Nc1nn(Cc2ccc(Cl)cc2)c2nc(N3CCCCCC3)ccc12)C1CCCNC1 (centres unmarked) [compound 745]
[out] 3000 nM

[in] Now this one: CCCC(C)CN1CCC(NC(=O)c2nn(C)c3nc(N4CCCCCCC4)ccc23)CC1 (centres unmarked) [compound 1308]
[out] 480 nM

[in] Now this one: Cn1nc(C(=O)NC2CCNCC2)c2ccc(OCc3ccccc3-c3cccs3)nc21 [compound 1101]
[out] 800 nM

[in] Now this one: Cn1nc(C(=O)NC2CCN(CCC3CCCCC3)CC2)c2ccc(N3CCCCCCC3)nc21 [compound 1299]
[out] 310 nM

[in] Now this one: COCC1CCN(CCN2CCC(NC(=O)c3nn(C)c4nc(N5CCCCCC5)ccc34)CC2)C1 (centres unmarked) [compound 1557]
[out] 2100 nM

[in] Now this one: Cn1nc(C(=O)NCC2CCCNC2)c2ccc(N3CCCCCC3)nc21 (centres unmarked) [compound 872]
[out] 8100 nM

[in] Now this one: Cn1nc(-c2nnc(C3CCN(CCN4CCCCC4)CC3)o2)c2ccc(N3CCCCCCC3)nc21 [compound 1373]
[out] 630 nM

[in] Now this one: Cn1nc(-c2nnc(C3CCNC3)o2)c2ccc(N3CCCCCCC3)nc21 (centres unmarked) [compound 1363]
[out] 2700 nM
